Tested on: HEK-293T
PROCEDURE DETAILS: Cytotoxicity against HEK293T cells expressing human wild type TSPO assessed as decrease in cell viability after 48 hrs by CellTiter blue assay
Type: functional, cell-based
Kindly state IC50 for each of the entries shown.
All answers are understood in µM, so give the number only.

# query: IC50 of entry CCN(CC)C(=O)Cn1c2ccccc2c2cc(-c3ccccc3)ccc21
23.7

Could you share which IC50 value was measured for CCC(C)N(C)C(=O)c1cc2ccccc2c(-c2ccccc2Cl)n1 (stereo not given) [PK-11195] ?
67.4

Can you look up the measured IC50 of CCN(Cc1ccccc1)C(=O)Cn1c(=O)n(C)c2cnc(-c3ccccc3)nc21 for me?
29.5

---

Tested on: HEK-293T
PROCEDURE DETAILS: Antiproliferative activity against HEK293T cells expressing human wild type TSPO after 48 hrs by BrdU incorporation assay
Assay type: functional, cell-based
pIC50: −log10 of the molar value.
Can you tell me pIC50 for the items I'm about to list?

Item under review: CCN(CC)C(=O)Cn1c2ccccc2c2cc(-c3ccccc3)ccc21 . Reported pIC50?
4.30

Reported pIC50 for CCN(Cc1ccccc1)C(=O)Cn1c(=O)n(C)c2cnc(-c3ccccc3)nc21 : what is it?
< 4.00

GET /values?readout=pIC50&item= CCN(Cc1ccccc1)C(=O)Cn1c2ccccc2c2ccccc21
< 4.00

Need pIC50 of CCN(CC)C(=O)Cc1c(-c2ccc(OC)cc2)nn2c(C)cc(C)nc12 , thanks.
< 4.00

# pIC50 lookup, item CCC(C)N(C)C(=O)c1cc2ccccc2c(-c2ccccc2Cl)n1 (stereo not given) [PK-11195]
< 4.00

---

Exercise: state measured IC50 for each of the compounds provided.
Tested on: HEK-293T
PROCEDURE DETAILS: Cytotoxicity against HEK293T cells expressing human TSPO A147T mutant assessed as decrease in cell viability after 48 hrs by CellTiter blue assay
Assay type: functional, cell-based

Any idea what IC50 was measured for CCN(Cc1ccccc1)C(=O)Cn1c(=O)n(C)c2cnc(-c3ccccc3)nc21 ?
26.2 µM

Can you share its IC50? I mean this compound: CCC(C)N(C)C(=O)c1cc2ccccc2c(-c2ccccc2Cl)n1 (stereo not given)
69.2 µM

Record request: IC50 value, item CCN(Cc1ccccc1)C(=O)Cn1c2ccccc2c2ccccc21
> 100 µM

Bench note: what IC50 did CCN(CC)C(=O)Cn1c2ccccc2c2cc(-c3ccccc3)ccc21 show?
22.9 µM

Please give the measured IC50 for this compound: CCN(CC)C(=O)Cc1c(-c2ccc(OC)cc2)nn2c(C)cc(C)nc12
> 100 µM

---

The reader will find Ki measurements below, all made with Translocator protein (Homo sapiens).
Sequence (P30536 whole entry): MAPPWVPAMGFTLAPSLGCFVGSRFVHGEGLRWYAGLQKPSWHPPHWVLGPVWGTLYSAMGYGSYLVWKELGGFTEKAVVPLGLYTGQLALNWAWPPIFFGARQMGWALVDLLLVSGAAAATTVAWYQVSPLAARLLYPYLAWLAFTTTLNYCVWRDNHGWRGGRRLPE
Number only, in nM; omit the unit.

# get_value(readout='Ki', item= CCN(CC)C(=O)Cn1c2ccccc2c2cc(-c3ccc(OC)cc3)ccc21 )
28.9

Quick one: Ki of CCN(CC)C(=O)Cn1c2ccccc2c2cc(-c3ccccc3OC)ccc21 ?
25.4

So what does the record say about Ki for CCN(CC)C(=O)Cn1c2ccccc2c2ccccc21 ?
30.1

Consider the compound CCN(CC)C(=O)Cn1c2ccccc2c2cc(Br)ccc21 and give its measured Ki.
31.5

Entry under review: CCN(Cc1ccccc1)C(=O)Cn1c(=O)n(C)c2cnc(-c3ccccc3)nc21 . Reported Ki?
6.4

// query Ki value for entry CCN(Cc1ccccc1)C(=O)Cn1c2ccccc2c2cc(Br)ccc21
54.3

What value of measured Ki is listed for CCN(CC)C(=O)Cn1c2ccccc2c2cc(-c3ccccc3)ccc21 ?
31.6

Given the compound CCN(Cc1ccccc1)C(=O)Cn1c2ccccc2c2ccccc21 , what is its reported Ki?
91.6
